System: HT-29
Assay: NCI tumour cell line growth inhibition, 48 h
Calls of active or inactive are those of the source. Cut-off read from the data, not from the text of the source: active = GI50 up to about 1.1 µM and inactive = higher.
Outcome codes: yes (1) for active, no (0) for inactive

compound	group-label
Cc1cccc(C(C)(C)C)c1NC(=O)CC1Sc2ccccc2NC1=O (configuration not stated)	no (0)
CCCCCCC(CCl)c1sc(-c2csc(CCNC(=O)OC(C)(C)C)n2)nc1C(=O)OC (configuration not stated)	no (0)
Cc1ccc(C(=O)O/N=C2/CCCCC2CN(C)C)cc1 (configuration not stated)	no (0)
COc1ccc(/N=C/C=C/Nc2ccc(OC)cc2)cc1	no (0)
O=c1[nH]nc(Cc2ccccc2)n1N=C1CCCCC1	no (0)
Nc1nc(-c2ccccc2)c(CC(=O)O)s1	no (0)
Cn1c2ccccc2c(=S)c2ccccc21	no (0)
COC1CCC(CO)OO1 (configuration not stated)	no (0)
COC(=O)C(Cc1c[nH]c2ccccc12)NC1=Nc2ccncc2S(=O)(=O)N1c1cccc(OC(C)C)c1 (configuration not stated)	no (0)
CN(C)c1nc(N)nc(CCl)n1	no (0)
CCOC(=O)c1nc2ccc(C(F)(F)F)cc2nc1Nc1ccc(OC)cc1	no (0)
O=C1C2SC34c5c2c2ccccc2n5CCC3CCCN14 (configuration not stated)	no (0)
CC(=O)OCC1OC(SC2=N/C(=C\c3cc4c(=O)c5ccccc5sc4s3)C(=O)N2c2ccccc2)C(OC(C)=O)C(OC(C)=O)C1OC(C)=O (configuration not stated)	no (0)
CC1(C)COC(c2cccc(C3=NC(C)(C)CO3)c2)=N1	no (0)
CN1N=C(c2ccncc2)OC1c1ccc(Cl)c(Cl)c1 (configuration not stated)	no (0)
COc1ccc2c(C(=O)O)cc3cc(OC)c(OC)cc3c2c1	no (0)
O=C(COc1ccc(OCC(=O)N2C(=O)CN(c3ccc(Cl)cc3)C2=S)cc1)N1C(=O)CN(c2ccc(Cl)cc2)C1=S	no (0)
CCCC(=O)Nc1cc(/C=C/C(=O)N2CC(CCl)c3c2cc(O)c2[nH]cc(C)c32)n(C)c1 (configuration not stated)	yes (1)
Nc1ccc(/N=N\c2ccc(-c3ccc(O)cc3)cc2)c2ccc(S(=O)(=O)O)cc12	no (0)
CNc1ccc(C(=O)CC(O)CCC(C)C2OC(=O)CC(O)CC(=O)CC(O)CC(O)CC(O)CC(O)CC3(O)CC(O)C(C(=O)NCCN(C)C)C(CC(OC4OC(C)C(O)C(NC(=O)CN5CCN(C)CC5)C4O)\C=C/C=C\C=C/C=C/C=C/C=C\C=C/C2C)O3)cc1 (configuration not stated)	no (0)
O=C(/C=C/c1ccccc1)CCN1CCOCC1	no (0)
CN(C)/C=N/n1c2ccccc2c2ccccc21	no (0)

====

Tested on: TK-10
Experiment: NCI tumour cell line growth inhibition, 48 h
The source made the active and inactive calls. No stated cut-off is given here; in the data, active = GI50 up to about 1.1 µM and inactive = higher. *1 amine or outer side, *2 acyl side, *3 side chain or, on linkers, in order; H or OH if unused. Where a SMILES comes first, the peptide text is derived from it. Bridges are numbered along the chain shown (N, C = ends). [ ]: non-standard residue; d: D form. The star is where a group is joined. X36 = CC[C@H](C)[C@@H](N[*:1])[C@@H](O)CC(=O)O[C@H](C(=O)[C@H](C)C(=O)[*:2])C(C)C; NMeY = CN[C@@H](Cc1ccc(O)cc1)C(=O)O; Boc = CC(C)(C)OC(=O)*
Outcome codes: active, inactive

compound	group-label
C[Si](C)(C)C1(Sc2ccccc2)SCCCS1	inactive
C#CC(=O)OCC#CCOC(=O)C#C	inactive
CCOP(=O)(OCC)C(=C1C=C(C(C)(C)C)C(=O)C(C(C)(C)C)=C1)P(=O)(OCC)OCC	inactive
Cc1cccc(Cn2c3c(c4cc(O)ccc42)C(=O)c2ccccc2C3=O)c1	inactive
CC(C)N(C(=O)C12C3C4C5(C#N)C3C1(I)C5C42I)C(C)C (stereo not drawn)	inactive
CCOC(=O)C/C(=N\c1cc(C)on1)N(CC)CC.[O-][Cl+3]([O-])([O-])O	inactive
C=C(c1ccc2[nH]c(NC(=O)OC)nc2c1)c1cccs1	active
CC(C)(C)C(=O)O[C@H]1C=C[C@@H](O)[C@@H]2[C@H]1[C@@H]1C=C[C@H]2C1	inactive
OCC1c2ccccc2-n2nc(-c3ccccc3)c(O)c21 (stereo not drawn)	inactive
CCOC(=O)Nc1nc(-c2ccccc2)c(C)s1	inactive
COc1cc2c(cc1OC)C1C(=O)c3c(O)cc4c(c3OC1CO2)C=CC(C)(C)O4 (stereo not drawn)	inactive
COc1cc(C=O)cc(O)c1O	inactive
CCOC(=O)C(NS(=O)(=O)c1ccccc1)(C(F)(F)F)P(=O)(OCC(C)C)OCC(C)C (stereo not drawn)	inactive
O=C(CSCC(=O)N/N=C\c1ccc(O)c(O)c1O)N/N=C\c1ccc(O)c(O)c1O	inactive
O=C1OC(C2Cc3ccc4c(c3C2=O)CCC4)c2ccccc21 (stereo not drawn)	inactive
CC[C@H](C)[C@H]1NC(=O)[C@@H](N)[C@@H](C)OC(=O)[C@H](Cc2ccc(OC)cc2)N(C)C(=O)[C@@H]2CCCN2C(=O)[C@H](CC(C)C)NC(=O)[C@@H](C)C(=O)[C@H](C(C)C)OC(=O)C[C@@H]1O (H-T[X36]LP[NMeY](Me); ester 1-C)	inactive
CN(C)c1ccc(C2CC(c3ccc4ccccc4c3O)=NN2)cc1 (stereo not drawn)	inactive
Cn1c(=O)oc2cc(C(O)CN3CCN(Cc4ccc5c(c4)OCO5)CC3)ccc21 (stereo not drawn)	inactive
Nc1nc(NNc2ccccc2F)cc(=O)[nH]1	inactive
Cc1cn(C2CC(O)C(Cn3cc(Cn4nc(Br)c(=O)[nH]c4=O)nn3)O2)c(=O)[nH]c1=O (stereo not drawn)	inactive
c1ccc2/c3[nH]/c(c2c1)=N\c1ccc(cc1)-c1nc2ccc(cc2o1)/N=c1/[nH]/c(c2ccccc12)=N/c1ccc2nc(oc2c1)-c1ccc(cc1)\N=3	inactive
Nc1nc(CC2(O)CCCCC2)cc(-c2ccccc2)n1	inactive
C=CCOC(=O)CCCCCCCCCCCCCCCOC(=O)C1=C(CCC[C@@H](C)O[Si](C)(C)C(C)(C)C)N=C(N)N2[C@H](CC3(CC/C=C\[C@H](CC)O[Si](C(C)C)(C(C)C)C(C)C)OCCO3)CC[C@@H]12	inactive
O=C1NC2OC(CO)C(O)C(O)C2O1 (stereo not drawn)	inactive
S=C=Nc1ccc(CSc2nc3ccccc3[nH]2)cc1	inactive
CCCCN(CCCC)CCC(O)c1cc(-c2ccc(C(F)(F)F)cc2)nc(-c2ccc(C(F)(F)F)cc2)c1 (stereo not drawn)	inactive
CC1(SCC(N)C(=O)O)CC(=O)NC1=O (stereo not drawn)	inactive
CC(=O)C1COC(O)C1C (stereo not drawn)	inactive
CC(C)(C)OC(=O)NC(Cc1ccc(O)cc1)C(=O)N1CCCC1C(=O)O (stereo not drawn) (Boc-Tyr-Pro-OH; configuration not given here)	inactive
CCOC(=O)C(NC(=O)c1cccc(Cl)c1)(Nc1ccc(S(=O)(=O)Nc2cc(C)nc(C)n2)cc1)C(F)(F)F (stereo not drawn)	inactive
C=C1c2nc3ccccc3n2C=C(c2ccc(C)cc2)N1c1ccc(C)cc1	inactive
C=CCN1C[C@H](C)N([C@H](c2ccc(C(=O)N(CC)CCO)cc2)c2cccc(OC)c2)C[C@H]1C	inactive
O=c1oc2cccnc2n1CCN1CCN(c2ccc(Oc3ccccc3)cc2)CC1	inactive
Cc1c(C)c(S(=O)(=O)N(CCCCCN)OCCCN)c(C)c2c1OC(C)(C)CC2	inactive
C1CN(c2nnc(N3CCC3)nn2)C1	inactive
O=C(/N=C1\SCCN1C(=O)C(C(F)(F)F)C(F)(F)F)C(C(F)(F)F)C(F)(F)F	inactive
CC1=NN(c2ccccc2)C(=O)/C1=C\c1c(C)[nH]n(-c2ccccc2)c1=O	inactive
O=C(O)OC12CCCCCC1C(=O)C1CCCCC12 (stereo not drawn)	inactive
